The measured values listed here are drawn from paper PMC5540273.

Tested on: ERK8;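 further: KINOMEscan kinase panel screen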
Construct: gene MAPK15
PROTOCOL CONDITIONS: concentration: 1 μM, replicates: in singlicate; n = 1
VALUE TYPE: %Inh (%)
Numeric answer only, unit % assumed.

COc1cccc(C2=C(Nc3ccc(Cl)c(C(=O)O)c3)C(=O)NC2=O)c1 :: 0

Using the record for Cl.Cl.NCC(NC(=O)c1cc(-c2ccccc2)c(-c2ccnc3[nH]ccc23)s1)c1ccccc1 (stereo not shown) , report its %Inh.
0

Using the record for COc1cc(Nc2nccc(N3CCC(NC(=O)c4cc5ccccc5s4)C3)n2)cc(OC)c1OC (stereo not shown) , report its %Inh.
0

Using the record for "COc1cc(Nc2nccc(-c3c(-c4cccc(NC(=O)c5c(F)cccc5F)c4)nn4ccccc34)n2)cc(OC)c1OC" , report its %Inh.
24

Using the record for "Cc1cccc(NC(=O)Nc2ccc(Oc3ncnc4ccn(C)c34)cc2)c1" , report its %Inh.
12

Using the record for "O=C(O)C(F)(F)F.O=C(O)C(F)(F)F.O=c1[nH]ccc2nc(N[C@@H]3CCCNC3)nc(Nc3ccc(S(=O)(=O)N4CCOCC4)cc3)c12" , report its %Inh.
99.2

Using the record for "Cn1cc(-c2ccc3c(c2)CCN3C(=O)Cc2cccc(Cl)c2)c2c(N)ncnc21" , report its %Inh.
0

Using the record for "Nc1n[nH]c2cnc(-c3ccccc3)cc12" , report its %Inh.
6

Using the record for "CN1CCN(CCCNc2nccc(-c3c(-c4ccc(F)cc4)nn4cc(C(F)(F)F)ccc34)n2)CC1" , report its %Inh.
31

Using the record for "CNC(=O)c1ccccc1Nc1nc(Nc2ccc(N3CCOCC3)cc2)ncc1Cl.Cl" , report its %Inh.
99.5
